assay: NFAT Signaling Pathway (AID 444); conditions: Jurkat NFAT-bla M1, carbachol, beta-lactamase ratio, 5 h; at 7.69 µM (top of the series) unless noted;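 also: carbachol stimulus at about its EC50 of 1 µM final; % is scaled to controls: 0 for no effect and ±100 for the full control effect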
Inconclusive results are not listed. The source made the active and inactive calls. Calls follow the shape of the dose curve; as a rule, active = well fitted curve in either direction with a large enough effect (not every such curve was filed as active); inconclusive = small, poorly fitted or top-dose-only effect, or another doubt; inactive = flat fitted curve, though single readings scatter.
result.type: activity change, negative = inhibition

Recorded activity change, negative = inhibition, per entry:
CC(CCC(=O)O)(c1ccc(O)cc1)c1ccc(O)cc1 ... 6.62% (inactive)
CC(C)=CCNc1ncnc2c1c(C#N)cn2[C@H]1O[C@@H](CO)[C@@H](O)[C@@H]1O ... 6.29% (inactive)

Report measured activity change, negative = inhibition; entry is "O=c1c(-c2ccccc2)nc2cnc(Oc3ccccc3)nc2n1C1CC1" 2.32% (inactive)

Report measured activity change, negative = inhibition; entry is "CNC(=O)[C@@H]1O[C@@H](n2cnc3c(N)ncnc32)[C@@H](O)[C@H]1O" 6.42% [at 38 µM] (inactive)

Report measured activity change, negative = inhibition; entry is "[O-][N+]1(CC[N+]2([O-])CCCCC2)CCCCC1" 2.18% (inactive)
